tested system: full length cynomolgus monkey DLL4 (cynomolgus monkey)
method description: FMAT, hybridoma supernatant, 293T cells with cynomolgus DLL4

binder	FL1
17F3 (antibody, IgG2, V domains shown) VH: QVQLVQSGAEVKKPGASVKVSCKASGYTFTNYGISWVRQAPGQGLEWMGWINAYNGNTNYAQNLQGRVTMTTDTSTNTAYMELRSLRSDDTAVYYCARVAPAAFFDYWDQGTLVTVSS VL: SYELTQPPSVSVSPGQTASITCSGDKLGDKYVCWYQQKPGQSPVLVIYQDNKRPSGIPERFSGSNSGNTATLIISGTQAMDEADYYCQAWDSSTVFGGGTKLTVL	10700
12A1 (antibody, IgG4, V domains shown) VH: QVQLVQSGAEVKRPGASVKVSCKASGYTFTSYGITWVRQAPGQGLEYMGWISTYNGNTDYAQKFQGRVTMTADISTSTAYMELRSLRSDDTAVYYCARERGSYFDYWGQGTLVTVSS VL: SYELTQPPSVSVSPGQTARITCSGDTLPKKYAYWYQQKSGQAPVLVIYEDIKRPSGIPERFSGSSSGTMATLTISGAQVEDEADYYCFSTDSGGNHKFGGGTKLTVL	12900
20G8 (antibody, IgG4, V domains shown) VH: QVQLVQSGAEVKKPGASVKVSCKASGYTFTSYGISWVRQAPGQGLEWMGWISVYNGNTNYAQKLQGRVTMTTDTSTSTAYMEVRSLRSDDTAVYYCARDRVPRIPRTTEAFDIWGRGTMVTVCS VL: QSVLTQPPSASGTPGQRVTISCSGSSSNIGSYYVYWYQQLPGTAPKLLIYRDNQRPSGVPDRFSGSKSGTSASLAIRGLRSDDEADYYCAAWDDSLSGHWVFGGGTKLTVL	11200
4B3 (antibody, IgG4, V domains shown) VH: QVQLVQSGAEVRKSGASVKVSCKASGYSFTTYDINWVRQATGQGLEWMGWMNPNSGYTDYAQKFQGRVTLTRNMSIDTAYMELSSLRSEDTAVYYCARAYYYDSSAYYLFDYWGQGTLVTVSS VL: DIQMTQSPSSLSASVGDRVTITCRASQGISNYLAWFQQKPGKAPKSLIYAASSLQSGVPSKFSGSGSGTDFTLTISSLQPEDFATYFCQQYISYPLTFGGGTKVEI	12600
